These data points were gathered from patent US5258406A.

Test system: 6C3HED lymphosarcoma
testProtocol: animal or person
Assay type: in vivo
setupConditions: oral, 300 mg/kg, BIDX 8
observable: Tox/Tot (mice which died / total)

The following compounds have reported results that may help.
N=S(=O)(NC(=O)Nc1ccc(Cl)cc1)c1ccc2c(c1)CCC2 (centres unmarked): 0/10
CC(=O)N(C)S(=O)(=NC(=O)Nc1ccc(Cl)cc1)c1ccc(C)cc1 (centres unmarked): 1/10
CCN=S(=O)(NC(=O)Nc1ccc(Cl)cc1)c1ccc(C)cc1 (centres unmarked): 0/10
CCc1ccc(S(=N)(=O)NC(=O)Nc2ccc(Cl)cc2)cc1 (centres unmarked): 8/10

Shifting focus to the compound that follows.
Fill in: Tox/Tot (mice which died / total) of CC(=O)N(C(=O)N=[S+]([O-])(c1ccc(C)cc1)N(C)C(C)=O)c1ccc(Cl)cc1 (centres unmarked) is ___
0/10
